Assay Details: in vitro
Experimental Parameters: human
Measured Endpoint: CC50 (µM)

CC1(C)CC(NC(=O)C(=O)Nc2cc(F)c(Cl)c(F)c2)CC(C)(C)N1 :: 68.3
CC1(C)CC(NC(=O)C(=O)Nc2ccc(C(F)(F)F)c(F)c2)CC(C)(C)N1 :: 48.4
CC1(C)CC(NC(=O)C(=O)Nc2ccc(Cl)cc2)CC(C)(C)N1 :: 67.7
CC1(C)CC(NC(=O)C(=O)Nc2ccc(C(C)(C)C)c(F)c2)CC(C)(C)N1 :: 20.6
CC1(C)CC(NC(=O)C(=O)Nc2ccc(Cl)c(F)c2)CC(C)(C)N1 :: 43.2
